# protocol.description: optional elimination phase assessment at end of treatment with ARQ-151 cream in psoriasis
# Format: in vivo, human
# test.parameters: human, plasma, topical or ocular, three subjects, end of treatment, topical ARQ-151; read-out: Half-life values (converted)
measured.parameter: half-life

Just so you know, measured half-life for O=C(Nc1c(Cl)cncc1Cl)c1ccc(OC(F)F)c(OCC2CC2)c1 came out at ~86.4 h

* * *

# protocol.description: clinical
# test.parameters: human, in vivo, po
measured.parameter: concentration at 2 days

Just so you know, measured concentration at 2 days for O=C(Nc1c(Cl)cncc1Cl)c1ccc(OC(F)F)c(OCC2CC2)c1 came out at ~2.8 ng/mL
